Below, each entry is listed alongside its reported soluble fraction (log2).
# method.summary: soluble fraction after stress (log2 fold change); higher = more stays soluble; pooled small domains, quantitative proteomics
# applied.conditions: stress: pH 4
Number only, no unit.

Worked set:
residues	numeric.value
HMEQNHYEVLGVSRDAIPEEIRKAYFEYARKLHPDANPDPGAAEQFMRIQTAYDVLSNPDRRHEYDGLLPP	-0.249
HMDLDPNKPAIPIAYPRVLLNIMAEKGFSRTEVLAGSGLADSVFDKPDHRITPAQFLFILMNSFYLS	-0.631
HMRHSLAAALTELRRLAALDLGDFFRFEYVSHTDSLGGKQQAYTEGIRVSFGVYLGVNKKDRLNVDPVV	-2.38
HMTVGENTYELIKKDIIFGVLPPLKKLKLQELKKIYNASVSTLREILSRLTGDGFVFSEEQKGFYVSPV	-0.33
HMKSSYSGNFKQNVVEYMHNNHLSATETANHFKLGGGSVVLRWERIYYEEGPQALYEERRGR	0.144
HMQLHDTMKRVYEALDISEQKLAESLGLKLSTIINWQKNGISKIGINKLNQTFGLDMQWILTGQGEPFI	-0.0735

Q: Please give the measured soluble fraction (log2) for this sequence: HMGPVALGVTDGATYFSSVTITFRRGTAVLDGEPIASGHTVYKSGAHSLTLTAGGKTRTIAFTMDT
A: 0.139

Q: Please give the measured soluble fraction (log2) for this sequence: HMRRATLERLANNTAEKAIRYKRSLALEPMNPQERRIIHAALQEVEGVSTHSVGTEPNRKVIVVPDGV
A: -0.186

Q: Please give the measured soluble fraction (log2) for this sequence: HMLTEREQDTLNFIRQYIDEQGRSPLVSEIAKGLGIKSQGTTHRYIQALVDAGLLERHVGRTRGLHLT
A: -0.352

Q: Please give the measured soluble fraction (log2) for this sequence: HMTTELDTTAITPIIQKVLKANPDVVAKYKAGQQQVIGFLMGQVMRELSTKPNPKELQSLIVAQLQQA
A: -0.0703

Q: Please give the measured soluble fraction (log2) for this sequence: HMSEVTYQETLRLLRRAIDVLPQQSRQIILLGLSGKNNNEVAEMLGISVNTVKTLKKGAYKSLRNSL
A: -0.281

Q: Please give the measured soluble fraction (log2) for this sequence: HMTVPTEVALELMHATALEDNEQRILYIASFKEKHREHLHATIEVDGQEVTLARYADLVATGAYL
A: -2.15

Q: Please give the measured soluble fraction (log2) for this sequence: HMSKIVPVAYSQFLKDVKNGNVSQVEIRGNNIKGINNNGSSFSTYAPNDLSLIDKLEKSNVEIIVMPLE
A: -0.232

====

# method.summary: soluble fraction after stress (log2 fold change); higher = more stays soluble; pooled small domains, quantitative proteomics
# applied.conditions: stress: pH 4
measure.name: soluble fraction (log2)
Number only, no unit.

Worked set:
residues	numeric.value
HMGSEGVKVEDTIGMSEAEATATLGKSGFVVNKTESHDPYIKAGNVITQSPAAGSKAPKGTTVTLTISLGP	0.423
HMKGLDRATNKALLLKHIIDNGSTGTRFSELRQVLPSLTRGSISSLLIELRSEGKIHSIGVTRNARWYPTE	-0.309

Q: Please give the measured soluble fraction (log2) for this sequence: HMKKIDVEVVRSQLIAWMADNGKSQAEVSKSMGISASALSMFIKGTYTGDNEQIGRKAAALMDLVHRQSA
A: 0.189

Q: Please give the measured soluble fraction (log2) for this sequence: HMPIHAGERLTLRLAGEGREAGQAIGYLEDGTLVIVERARHLIGQDVTVEVTRTLQTAGGRLVFAHLVE
A: -0.896

Q: Please give the measured soluble fraction (log2) for this sequence: HMRTMRHLSVPRQETQQILSQLKAEFALPQGARVQPDPSDSKRTLIPVKEGAESELLSRYPVVHAEP
A: 0.11

Q: Please give the measured soluble fraction (log2) for this sequence: HMGGTTLIAKQATVTGDIQFSSNLDIEGRVVGAISVEPGKEAMLHVVEGGSVEGEIRVPSAVINGKVTGDI
A: -0.775

====

Below, each entry is listed alongside its reported soluble fraction (log2).
# method.summary: soluble fraction after stress (log2 fold change); higher = more stays soluble; pooled small domains, quantitative proteomics
# applied.conditions: stress: pH 4
Number only, no unit.

Worked set:
residues	soluble fraction (log2)
HMSKAYLSVESNISGARVFVDGQKEGTTPLSDVLLSAGEHLILVKKQGYETYQKRVRFQKGRSMSLYVDLS	-0.0554
HMKERVSWDERLERFAKHITENESLPYPSSKEYAWFEENKALYDAGELEPVRAQSFAFLLKIMRRMNL	0.0752
HMTHAISKTYAVTGEQLKNGFTLTHTFANGSTRRVDVYPGSRSGKVIAVRNTTDDTTEWIRIVEG	-0.0152

Q: Please give the measured soluble fraction (log2) for this sequence: HMSVEVADITRAYYEGVGFEWWIRSVRLDPNELIVDNDDEGKLYRVPFEINGEEVTFGDPVEVKIRYE
A: -0.71

====

# method.summary: soluble fraction after stress (log2 fold change); higher = more stays soluble; pooled small domains, quantitative proteomics
# applied.conditions: stress: pH 4
Below, each entry is listed alongside its reported soluble fraction (log2).

residues	measure.name	result
HMSYPFSEDALKEKIREYLKHNRSINRKVLEAEFHIRKQTALNWLKKLEKSGFLIKEGSRNAPVYFLAE	soluble fraction (log2)	0.0835

Q: Please give the measured soluble fraction (log2) for this sequence: HMQMSERENTILLTKRYIERGEYERAMNLLDSLLIKNALDEEALAMIDEIIALKAGASLQDFPRY
A: -1.48

Q: Please give the measured soluble fraction (log2) for this sequence: HMRRVEDVRTALEHFAAARNTTPMAMTLDQRREAMRELAASGLLNLRRALSEVAQTLGVARSTVYTYLP
A: ≥ 0.43

Q: Please give the measured soluble fraction (log2) for this sequence: HMPFDRTVQLAGARARQLQALPRYREVLRLLDEGMNPREIGQVLDPPVTRQRASALIQQAKRAQMLGLFED
A: -0.0649

====

# method.summary: soluble fraction after stress (log2 fold change); higher = more stays soluble; pooled small domains, quantitative proteomics
# applied.conditions: stress: pH 4
Below, each entry is listed alongside its reported soluble fraction (log2).
Number only, no unit.

Worked set:
residues	soluble fraction (log2)
HMANPRLEYFLSNITPDWNEFSPELKNQLLIENADPYKLEQYILQVSPDMYIEEQNAPGTVRQMAGDITG	-1.54
HMGNEMQVPNVAGKTVDEAIEIFNNMGLKVAAENKYAQSDDVKEGDVVKTDPSSGRNVKKGSEITLYISQG	0.291
HMIAVLEEGSRFRAINDISGKPFGPEMIIKNGQVIAAGKKILTKPKKLIGKKEGTKFNISGKEYVIKDI	-0.834
HMRPPLRAAIIDHLARDWHTVAELARLLPASGAHVSRLVVELRAVGAVDERISHPDWPGNRPTEYRLRRA	-1.05
HMRISMRDQVYEIIKNRILSREYSLGEPINIVHLSKELGISNTPIREALSQLETERLITINSNQKYHVT	-0.0135

Q: Please give the measured soluble fraction (log2) for this sequence: HMLANLNKELQNDAALLKQKAQGNSNLLAKIQDVEQQMKQVNTSSASDEAKAKELQTLQRKLTAYKKALA
A: -0.0638

Q: Please give the measured soluble fraction (log2) for this sequence: HMGMTDEELNREEERVVAELEAKDEEELTIYNEEDLTFEETLDLPEGSLMRDRENGMIYLKVLDIWMPY
A: -0.831

Q: Please give the measured soluble fraction (log2) for this sequence: HMNLSAREWTSADGSRTFQGELTGFQDGKVKVRRSDGKSLVFAIELLSESDQQFIKTNQLVIAKKDED
A: -0.752

====

# method.summary: soluble fraction after stress (log2 fold change); higher = more stays soluble; pooled small domains, quantitative proteomics
# applied.conditions: stress: pH 4
Below, each entry is listed alongside its reported soluble fraction (log2).
Number only, no unit.

Q: Please give the measured soluble fraction (log2) for this sequence: HMRAMWENLFFQYKEGFLPEEYYKQGIATGIRLAGPKFVEMNIPMQKEFEDEVHRLLAEHEKSVK
A: -0.795

Q: Please give the measured soluble fraction (log2) for this sequence: HMHGQGTYTSPDGTKYVGDWQDEKMHGQGTYTYPDGMKFVGEFKDNKPWNGTGYDKYGNVKATFSNGVGKS
A: 0.22

Q: Please give the measured soluble fraction (log2) for this sequence: HMPGMLVVYVTGAVRQPGRMVTLAAGSRVSDAIDAAGGLADDADAQALNLSARLNDGDLVHVPSALD
A: -0.227

Q: Please give the measured soluble fraction (log2) for this sequence: HMDVAWDAIKAKLKEVVDAEDKAHPLNDDQIVKALGESGITIARRTIAKYRDLLGIPPARKRKA
A: 0.0412

Q: Please give the measured soluble fraction (log2) for this sequence: HMDGASVQRITELTATLNRYRHEYYNLAKPSVSDAVYDRLFDELAALEQKTGIVLSNSPTQTV
A: -0.759

Q: Please give the measured soluble fraction (log2) for this sequence: HMALTQEQLGQRLQDARKSVALTQQEVAEDLGLSRESLAQIEAGSRSVNSLEIVRLARLYGRSLSSILLE
A: -0.299

Q: Please give the measured soluble fraction (log2) for this sequence: HMLDEKAVRQYLLNTLENSEIKMDRQAIDLFLRLTDLDLSKMMRELQKILLYGQEQEVITVKEIEQ
A: -1.17

Q: Please give the measured soluble fraction (log2) for this sequence: HMQLNNTDELEKIILKILENNPKQVDQFLAGKQKLLGFFVGQAMRATSGKANPKTVNDLLEKFLSK
A: -0.335

Q: Please give the measured soluble fraction (log2) for this sequence: HMSRAMFEMHADWQPTDSIRGLLGRAGLPTDIAKLDQSRIGDFVNHWFGKPDRNTADSWNGLLVGWLKRTQ
A: -0.787

Q: Please give the measured soluble fraction (log2) for this sequence: HMDDERDRLVQQAMEGLSPALREILLLAYFQRMPYNQIAESLRIPLGTVKSRLHAAVAAFAKRWQELNRS
A: -0.475

Q: Please give the measured soluble fraction (log2) for this sequence: HMVDIEQAEFLSRQFDLLLARLDDPTIEWQDIADIRSEYTGENEHRDTIRKGSKLFYEYLQAGWIKN
A: -0.809

Q: Please give the measured soluble fraction (log2) for this sequence: HMVVVVELTENEKAVQDVLTKNEGSLEISDLKTKLELSGKQWDKALKGLAKHGITQVAKVDGVVTVSL
A: -1.4

Q: Please give the measured soluble fraction (log2) for this sequence: HMGNTLAYSEFRQKVQEGAVKQVVLSEDRVTGELTNGDRFTANIVRDPELLKMLNDNNVKYDGKPT
A: -0.0484

Q: Please give the measured soluble fraction (log2) for this sequence: HMDTPPGLSPEEQAIIDIITTRGDATINELTASIDIPTPRLMGMLVDMEFRSLIAAIPGGRYRI
A: -1.42

Q: Please give the measured soluble fraction (log2) for this sequence: HMKNSMANVQARREKILSAVDQSEPVAVEGLAQRFNVSITTLRRDLKALSDMGQVKWHHGLVERT
A: 0.164

Q: Please give the measured soluble fraction (log2) for this sequence: HMDLDIRDDIYRANIPNDYKLQQMQNNIDYDKVLTGYYNNRPEANVIANRTLQLANDVYNRD
A: -0.296
